tested_target: Serine/threonine-protein kinase pim-2 (Homo sapiens, UniProt Q9P1W9);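 also: value comes from a broad kinase panel profiling study in which PIM2 was one of the panel members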
Sequence (Q9P1W9 whole entry): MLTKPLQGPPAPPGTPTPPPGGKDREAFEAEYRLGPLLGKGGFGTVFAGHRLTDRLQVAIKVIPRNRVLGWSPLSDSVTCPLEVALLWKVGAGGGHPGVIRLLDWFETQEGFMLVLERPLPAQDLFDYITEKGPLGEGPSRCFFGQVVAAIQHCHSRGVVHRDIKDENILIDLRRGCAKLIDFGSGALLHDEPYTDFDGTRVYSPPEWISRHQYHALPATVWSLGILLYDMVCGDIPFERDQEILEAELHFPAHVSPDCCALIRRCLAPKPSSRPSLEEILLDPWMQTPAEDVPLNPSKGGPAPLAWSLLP
Format: functional
Active and inactive are the calls of the source.
In this exercise, the only acceptable responses are 1 (yes) (active), 0 (no) (inactive)

Before answering, review these 3 worked examples.
COc1ccc2c(c1)C(=Cc1cnc[nH]1)C(=O)N2; 0 (no)
Cc1c(C=O)c(O)n2c(nc3ccccc32)c1C#N; 0 (no)
CN(c1ccc2[nH]ncc2c1)c1c(NCc2ccc(Cl)cc2Cl)c(=O)c1=O; 1 (yes)

// outcome(item) with item = Cc1n[nH]c2cnc(-c3cncc(OCC(N)Cc4cccc(C(F)(F)F)c4)c3)cc12 (centres undefined)
1 (yes)
